test: Volume of distribution at steady state in rat; type: ADME, organism-based; conditions: in vivo, read-out: Vdss
PROPERTY_NAME: Vd (L/kg)
Your answer should be a plain number; it is taken to be in L/kg.

Short answer for O=C1NC(=O)C2(CCCN2c2ccc(Oc3ccc(-c4nc(-c5ccc(F)cc5)co4)cc3)nc2)C(=O)N1 : Vd was 1.3

###

biological target: Collagenase 3 (Homo sapiens); test: Inhibition of MMP13
// classify: if (IC50 < 400 pM) TRUE else FALSE

Some solved cases for reference:
O=C1NC(=O)C2(CCCN2c2ccc(Oc3ccc(-c4nc(-c5cccc(F)c5)co4)cc3)nc2)C(=O)N1; TRUE
N#Cc1cccc(-c2coc(-c3ccc(Oc4ccc(N5CCCC56C(=O)NC(=O)NC6=O)cn4)cc3)n2)c1; TRUE
CCOCCC1(Oc2ccc(Oc3ccc(-c4nc(-c5cccc(C#N)c5)co4)cc3)cc2)C(=O)NC(=O)NC1=O; FALSE
CCOCCC1(Oc2ccc(Oc3ccc(-c4nc(-c5ccc(C#N)cc5)co4)cc3)cc2)C(=O)NC(=O)NC1=O; FALSE
O=C1NC(=O)C2(CCCN2c2ccc(Oc3ccc(-c4nc(-c5ccc(F)cc5)co4)cc3)nc2)C(=O)N1; TRUE
O=C1NC(=O)C2(CCCN2c2ccc(Oc3ccc(-c4nc5ccccc5[nH]4)cc3)nc2)C(=O)N1; TRUE
O=C1NC(=O)C2(CCS(=O)(=O)N2c2ccc(Oc3ccc(F)cc3)nc2)C(=O)N1; FALSE
O=C1NC(=O)C2(CCC(=O)N2c2ccc(Oc3ccc(F)cc3)nc2)C(=O)N1; FALSE
CCOCCC1(Oc2ccc(Oc3ccc(-c4nc5ccc(Cl)cc5[nH]4)cc3)cc2)C(=O)NC(=O)NC1=O; FALSE
CCOCCC1(Oc2ccc(Oc3ccc(F)cc3)nc2)C(=O)NC(=O)NC1=O; FALSE

[Q] Would you kindly verify if IC50 of CCOCCC1(Oc2ccc(Oc3ccc(-c4nc5ccccc5[nH]4)cc3)cc2)C(=O)NC(=O)NC1=O is strictly less than 400 pM?
[A] FALSE

[Q] Would you kindly verify if IC50 of N#Cc1ccc(-c2coc(-c3ccc(Oc4ccc(N5CCCC56C(=O)NC(=O)NC6=O)cn4)cc3)n2)cc1 is strictly less than 400 pM?
[A] TRUE

[Q] Would you kindly verify if IC50 of O=C1NC(=O)C2(CCCN2c2ccc(Oc3ccc(-c4nc5ccc(Cl)cc5[nH]4)cc3)nc2)C(=O)N1 is strictly less than 400 pM?
[A] TRUE

[Q] Would you kindly verify if IC50 of CCOCCC1(Oc2ccc(Oc3ccc(-c4nc(-c5cccc(F)c5)co4)cc3)cc2)C(=O)NC(=O)NC1=O is strictly less than 400 pM?
[A] TRUE

[Q] Would you kindly verify if IC50 of O=C1NC(=O)C2(CCCN2c2ccc(Oc3ccc(Br)cc3)nc2)C(=O)N1 is strictly less than 400 pM?
[A] FALSE

[Q] Would you kindly verify if IC50 of CCOCCC1(Oc2ccc(Oc3ccc(F)cc3)cc2)C(=O)NC(=O)NC1=O is strictly less than 400 pM?
[A] FALSE

[Q] Would you kindly verify if IC50 of CCOCCC1(Nc2ccc(Oc3ccc(F)cc3)nc2)C(=O)NC(=O)NC1=O is strictly less than 400 pM?
[A] FALSE

[Q] Would you kindly verify if IC50 of CN1CC2(C(=O)NC(=O)NC2=O)N(c2ccc(Oc3ccc(F)cc3)nc2)C1=O is strictly less than 400 pM?
[A] FALSE

[Q] Would you kindly verify if IC50 of CC1(C)CC2(C(=O)NC(=O)NC2=O)N(c2ccc(Oc3ccc(F)cc3)nc2)C1=O is strictly less than 400 pM?
[A] FALSE

[Q] Would you kindly verify if IC50 of O=C1NC(=O)C2(CNC(=O)N2c2ccc(Oc3ccc(F)cc3)nc2)C(=O)N1 is strictly less than 400 pM?
[A] FALSE

[Q] Would you kindly verify if IC50 of O=C1NC(=O)C2(CCCN2c2ccc(Oc3ccc(-c4nc(-c5ccccc5F)co4)cc3)nc2)C(=O)N1 is strictly less than 400 pM?
[A] TRUE

[Q] Would you kindly verify if IC50 of O=C1NC(=O)C2(CCCC(=O)N2c2ccc(Oc3ccc(F)cc3)nc2)C(=O)N1 is strictly less than 400 pM?
[A] FALSE

[Q] Would you kindly verify if IC50 of O=C1NC(=O)C2(CCCN2c2ccc(Oc3ccc(-c4nc5ccc(F)cc5[nH]4)cc3)nc2)C(=O)N1 is strictly less than 400 pM?
[A] TRUE
